As shown below, each of these compounds has a reported AC50 value.
# experimental target: Muscarinic acetylcholine receptor M2 (Homo sapiens, UniProt P08172); also: assay procedure not described here
# Sequence (P08172 whole entry): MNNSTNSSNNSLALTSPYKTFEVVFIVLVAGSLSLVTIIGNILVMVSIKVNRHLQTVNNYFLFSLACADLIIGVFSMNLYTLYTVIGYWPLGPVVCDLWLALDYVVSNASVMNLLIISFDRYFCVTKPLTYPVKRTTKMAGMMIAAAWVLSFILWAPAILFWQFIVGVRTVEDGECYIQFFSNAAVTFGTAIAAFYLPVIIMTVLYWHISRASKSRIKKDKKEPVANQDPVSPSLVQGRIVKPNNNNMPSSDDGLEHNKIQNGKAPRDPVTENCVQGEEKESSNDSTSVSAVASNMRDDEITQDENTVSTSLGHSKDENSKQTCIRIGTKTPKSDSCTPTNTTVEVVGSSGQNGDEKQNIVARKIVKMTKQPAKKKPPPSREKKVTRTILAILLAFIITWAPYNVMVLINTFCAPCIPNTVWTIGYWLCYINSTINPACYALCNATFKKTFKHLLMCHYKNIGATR
# Assay type: functional, cell-based

Here is how some compounds turned out for AC50.
compound="CN1CCC(=C2c3ccccc3CCc3sccc32)CC1 [PIZOTYLINE]" observed_value="> 30 µM"
compound=CN(C)CCC=C1c2ccccc2C(C)(C)c2ccccc21 observed_value="> 10 µM"
compound="Cc1ccc(S(=O)(=O)NC(=O)NN2CC3CCCC3C2)cc1 (stereo not given) [GLICLAZIDE]" observed_value="> 10 µM"

[Q] Return reported AC50. Input compound: COc1cc2nc(N(C)CCCNC(=O)C3CCCO3)nc(N)c2cc1OC (stereo not given) [ALFUZOSIN]
[A] > 30 µM

[Q] Give a short answer stating reported AC50 for OC(CNCC(O)C1CCc2cc(F)ccc2O1)C1CCc2cc(F)ccc2O1 (stereo not given) [NEBIVOLOL] .
[A] > 30 µM

====

# experimental target: Alpha-2A adrenergic receptor (Homo sapiens); also: assay procedure not described here
# Sequence (P08913 whole entry): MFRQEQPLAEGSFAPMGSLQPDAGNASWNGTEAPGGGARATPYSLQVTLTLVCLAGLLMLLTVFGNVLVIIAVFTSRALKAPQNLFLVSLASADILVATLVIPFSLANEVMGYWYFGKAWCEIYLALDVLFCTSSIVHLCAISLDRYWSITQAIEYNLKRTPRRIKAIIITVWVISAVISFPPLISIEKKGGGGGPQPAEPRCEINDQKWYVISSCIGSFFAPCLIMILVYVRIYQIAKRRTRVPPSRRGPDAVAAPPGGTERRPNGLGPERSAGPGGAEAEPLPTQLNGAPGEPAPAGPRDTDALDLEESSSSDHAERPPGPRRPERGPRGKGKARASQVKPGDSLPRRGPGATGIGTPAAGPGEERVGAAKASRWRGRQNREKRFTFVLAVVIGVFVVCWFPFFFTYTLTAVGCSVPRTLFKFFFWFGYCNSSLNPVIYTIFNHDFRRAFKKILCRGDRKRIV
observed property: AC50

// worked examples, AC50 included
molecule="CC(CNC(=O)c1ccccc1)C(=O)OCC(=O)[C@@]12OC(C)(C)O[C@@H]1C[C@H]1[C@@H]3CCC4=CC(=O)C=C[C@]4(C)[C@@]3(F)[C@@H](O)C[C@@]12C (some centres undefined) [TRIAMCINOLONE BENETONIDE]" observed_property=AC50 observed_value="> 30 µM"
molecule="C[N+](C)(C)CCO [CHOLINE]" observed_property=AC50 observed_value="> 30 µM"
molecule="CCOc1ccccc1OCC1CNCCO1 (centres undefined) [VILOXAZINE]" observed_property=AC50 observed_value="> 30 µM"

[Q] State its AC50 for this molecule: CCOC(=O)/C=C1\SC(N2CCCCC2)C(=O)N1C (centres undefined) [ETOZOLIN]
[A] > 30 µM

====

# experimental target: 3',5'-cyclic-AMP phosphodiesterase 4D (Homo sapiens, UniProt Q08499); also: assay procedure not described here
# Sequence (Q08499 whole entry): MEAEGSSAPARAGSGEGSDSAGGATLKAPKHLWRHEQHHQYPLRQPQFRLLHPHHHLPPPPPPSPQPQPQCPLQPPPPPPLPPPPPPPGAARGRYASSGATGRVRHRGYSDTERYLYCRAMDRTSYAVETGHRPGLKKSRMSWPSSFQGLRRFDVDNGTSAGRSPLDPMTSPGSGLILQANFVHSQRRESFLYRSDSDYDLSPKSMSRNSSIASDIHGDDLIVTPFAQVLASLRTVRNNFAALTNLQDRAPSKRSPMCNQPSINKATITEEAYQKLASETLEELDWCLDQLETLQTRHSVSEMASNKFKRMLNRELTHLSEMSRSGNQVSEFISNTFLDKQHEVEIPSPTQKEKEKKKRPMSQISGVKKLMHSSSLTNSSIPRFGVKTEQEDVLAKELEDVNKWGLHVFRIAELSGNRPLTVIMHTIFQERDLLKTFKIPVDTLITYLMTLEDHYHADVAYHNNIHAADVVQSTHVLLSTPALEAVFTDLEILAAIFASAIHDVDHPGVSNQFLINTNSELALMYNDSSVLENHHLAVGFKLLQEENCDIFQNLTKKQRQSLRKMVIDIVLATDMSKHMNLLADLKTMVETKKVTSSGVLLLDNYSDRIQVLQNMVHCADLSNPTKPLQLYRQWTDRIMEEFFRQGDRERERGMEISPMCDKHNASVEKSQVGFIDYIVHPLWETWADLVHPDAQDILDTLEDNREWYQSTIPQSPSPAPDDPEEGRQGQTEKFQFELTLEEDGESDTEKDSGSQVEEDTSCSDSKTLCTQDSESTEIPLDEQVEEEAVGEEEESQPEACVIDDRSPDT
# Assay type: functional
observed property: AC50

molecule="CO[C@@H]1[C@@H](O[C@@H]2O[C@H](C)[C@@H](O[C@H]3C[C@@](C)(O)[C@@H](OC(=O)CC(C)C)[C@H](C)O3)[C@H](N(C)C)[C@H]2O)[C@@H](CC=O)C[C@@H](C)[C@@H](O)/C=C/C=C/C[C@@H](C)OC(=O)C[C@H]1OC(C)=O [JOSAMYCIN]" observed_value="> 30 µM"
molecule="COC1=C(OC)C(=O)C(C/C=C(\\C)CC/C=C(\\C)CC/C=C(\\C)CC/C=C(\\C)CC/C=C(\\C)CC/C=C(\\C)CC/C=C(\\C)CC/C=C(\\C)CC/C=C(\\C)CCC=C(C)C)=C(C)C1=O [UBIDECARENONE]" observed_value="> 30 µM"
molecule="CC(=O)OCC(=O)[C@@]12N=C(C)O[C@@H]1C[C@H]1[C@@H]3CCC4=CC(=O)C=C[C@]4(C)[C@H]3[C@@H](O)C[C@@]12C [DEFLAZACORT]" observed_value="> 30 µM"
molecule="CCC1(CC)C(=O)NCC(C)C1=O (stereo unspecified) [METHYPRYLON]" observed_value="> 30 µM"
molecule="CC1(C)O[C@@H]2C[C@H]3[C@@H]4CCC5=CC(=O)C=C[C@]5(C)[C@H]4[C@@H](O)C[C@]3(C)[C@]2(C(=O)CO)O1 [DESONIDE]" observed_value="> 30 µM"

[Q] Write down AC50 measured for item CC(C)Cn1cnc2c(N)nc3ccccc3c21 [IMIQUIMOD]
[A] 4.03 µM

====

# experimental target: 5-hydroxytryptamine receptor 2B (Homo sapiens, UniProt P41595); also: assay procedure not described here
# Sequence (P41595 whole entry): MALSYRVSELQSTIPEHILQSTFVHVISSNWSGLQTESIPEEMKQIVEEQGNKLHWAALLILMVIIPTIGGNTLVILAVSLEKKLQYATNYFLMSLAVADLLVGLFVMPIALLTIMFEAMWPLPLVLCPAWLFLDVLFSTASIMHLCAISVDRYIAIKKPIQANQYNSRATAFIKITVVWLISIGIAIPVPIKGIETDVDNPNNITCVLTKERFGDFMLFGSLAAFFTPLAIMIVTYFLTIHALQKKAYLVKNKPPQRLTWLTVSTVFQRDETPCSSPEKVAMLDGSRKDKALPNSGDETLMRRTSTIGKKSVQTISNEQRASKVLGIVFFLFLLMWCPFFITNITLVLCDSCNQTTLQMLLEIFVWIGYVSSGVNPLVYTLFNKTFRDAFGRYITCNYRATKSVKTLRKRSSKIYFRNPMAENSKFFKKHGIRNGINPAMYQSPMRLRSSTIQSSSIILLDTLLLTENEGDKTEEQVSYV
observed property: AC50

compound="CCCCCCOc1ccccc1C(N)=O [EXALAMIDE]" experimental_target="5-hydroxytryptamine receptor 2B (Homo sapiens, UniProt P41595)" observed_value="270 nM"

[Q] Write down the reported AC50 (system: 5-hydroxytryptamine receptor 2B (Homo sapiens, UniProt P41595)) of CN1[C@@H]2CC[C@H]1C[C@@H](OC(c1ccccc1)c1ccccc1)C2; also: assay procedure not described here
[A] 137 nM

====

The following compounds each carry a recorded AC50 for UniProtKB P30411.
Sequence (P30411 whole entry): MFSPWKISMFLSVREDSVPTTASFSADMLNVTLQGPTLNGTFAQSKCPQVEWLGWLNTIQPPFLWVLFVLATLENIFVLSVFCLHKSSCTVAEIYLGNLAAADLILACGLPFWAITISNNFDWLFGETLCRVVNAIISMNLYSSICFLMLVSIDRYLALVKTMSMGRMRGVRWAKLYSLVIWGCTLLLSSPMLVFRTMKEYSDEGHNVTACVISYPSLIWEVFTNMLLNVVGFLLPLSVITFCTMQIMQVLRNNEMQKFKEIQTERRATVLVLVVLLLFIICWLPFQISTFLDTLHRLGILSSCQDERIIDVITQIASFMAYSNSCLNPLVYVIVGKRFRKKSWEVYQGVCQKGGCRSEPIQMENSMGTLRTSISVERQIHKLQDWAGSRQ

[Q] Quote AC50 with test system UniProtKB P30411 for Nc1nc(Cl)nc2c1ncn2[C@H]1C[C@H](O)[C@@H](CO)O1
[A] > 30 µM

====

# experimental target: Gamma-aminobutyric acid receptor subunit alpha-1 (Rattus norvegicus); also: assay procedure not described here
# Sequence (P62813 whole entry): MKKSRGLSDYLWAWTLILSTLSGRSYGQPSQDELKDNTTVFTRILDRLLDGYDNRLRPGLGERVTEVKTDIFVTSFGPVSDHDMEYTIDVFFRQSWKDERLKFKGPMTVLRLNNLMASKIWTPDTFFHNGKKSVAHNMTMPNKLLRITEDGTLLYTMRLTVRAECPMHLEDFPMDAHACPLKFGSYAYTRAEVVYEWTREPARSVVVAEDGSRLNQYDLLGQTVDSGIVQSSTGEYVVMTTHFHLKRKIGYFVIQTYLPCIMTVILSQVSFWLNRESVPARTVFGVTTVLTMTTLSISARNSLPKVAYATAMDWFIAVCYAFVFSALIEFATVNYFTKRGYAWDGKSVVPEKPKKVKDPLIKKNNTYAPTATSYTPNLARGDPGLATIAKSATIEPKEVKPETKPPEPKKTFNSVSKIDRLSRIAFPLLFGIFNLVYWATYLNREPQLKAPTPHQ
observed property: AC50

molecule="CC(Oc1c(Cl)cccc1Cl)C1=NCCN1 (stereo not given) [LOFEXIDINE]" observed_value="> 30 µM"
molecule="OC(CNCC(O)C1CCc2cc(F)ccc2O1)C1CCc2cc(F)ccc2O1 (stereo not given) [NEBIVOLOL]" observed_value="> 30 µM"
molecule="Clc1ccccc1C(c1ccccc1)(c1ccccc1)n1ccnc1 [CLOTRIMAZOLE]" observed_value="> 10 µM"
molecule="Cn1c(=O)c2c(ncn2CC2OCCO2)n(C)c1=O [DOXOFYLLINE]" observed_value="> 30 µM"
molecule="C=CCc1ccccc1OCC(O)CNC(C)C (stereo not given) [ALPRENOLOL]" observed_value="> 30 µM"

[Q] Give the observed AC50 of COc1ccc(C(=O)Nc2ccccc2CCC2CCCCN2C)cc1 (stereo not given) [ENCAINIDE] for Gamma-aminobutyric acid receptor subunit alpha-1 (Rattus norvegicus).
[A] > 10 µM

[Q] Provide AC50, recorded with Gamma-aminobutyric acid receptor subunit alpha-1 (Rattus norvegicus), of NC(=O)OCC(COC(N)=O)c1ccccc1 [FELBAMATE]
[A] > 10 µM

[Q] Provide measured AC50 on Gamma-aminobutyric acid receptor subunit alpha-1 (Rattus norvegicus) for O=C(O)C[C@H](O)C[C@H](O)/C=C/c1c(C2CC2)nc2ccccc2c1-c1ccc(F)cc1 [PITAVASTATIN] please.
[A] > 10 µM

[Q] Recall the reported AC50 of Cc1cc(O)c(C(=O)N[C@@H](C(=O)N[C@@H]2C(=O)N3C(C(=O)O)=C(CSc4nnnn4C)CS[C@H]23)c2ccc(O)cc2)cn1 [CEFPIRAMIDE] when tested on Gamma-aminobutyric acid receptor subunit alpha-1 (Rattus norvegicus). Also: assay procedure not described here.
[A] > 30 µM

[Q] Quote AC50 with test system Gamma-aminobutyric acid receptor subunit alpha-1 (Rattus norvegicus) for CCC(C)n1ncn(-c2ccc(N3CCN(c4ccc(OCC5COC(Cn6cncn6)(c6ccc(Cl)cc6Cl)O5)cc4)CC3)cc2)c1=O (stereo not given) [ITRACONAZOLE]; also: assay procedure not described here
[A] > 30 µM

[Q] Write down the reported AC50 (system: Gamma-aminobutyric acid receptor subunit alpha-1 (Rattus norvegicus)) of CC(C[N+](C)(C)C)OC(N)=O (stereo not given) [BETHANECHOL]; also: assay procedure not described here
[A] > 10 µM

[Q] State, for Gamma-aminobutyric acid receptor subunit alpha-1 (Rattus norvegicus), measured AC50 of the molecule listed here: O=C(O)/C=C/c1ccc(Cn2ccnc2)cc1 [OZAGREL]
[A] > 30 µM

[Q] Specify the recorded AC50 for CC(=O)O[C@H]1C[C@@H]2CC[C@@H]3[C@H](CC[C@@]4(C)[C@H]3C[C@H]([N+]3(C)CCCCC3)[C@@H]4OC(C)=O)[C@@]2(C)C[C@@H]1N1CCCCC1 [VECURONIUM] , system: Gamma-aminobutyric acid receptor subunit alpha-1 (Rattus norvegicus). Also: assay procedure not described here.
[A] > 30 µM
